assayed-target: Interleukin-5 (Mus musculus) (UniProt P04401)
Sequence (P04401 whole entry): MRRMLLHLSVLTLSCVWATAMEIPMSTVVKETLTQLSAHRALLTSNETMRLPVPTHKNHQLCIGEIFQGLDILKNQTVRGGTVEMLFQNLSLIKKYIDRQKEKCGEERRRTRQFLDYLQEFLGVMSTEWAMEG
experimental-details: Inhibition of IL-5 in mouse Y16 cells assessed as reduction in cell proliferation at 30 uM after 48 hrs by WST-1 assay relative to control
Assay type: cell-based
Just so you know, the groups by inhibition go like this: low class (below 30%), middle class (30% to below 70%), high class (70% or more)

compound=O=C1/C(=C/c2ccc(O)cc2)Cc2cccc(O)c21 assigned_label="middle class"
compound="O=C1c2c(cccc2OCCc2ccccc2)CC1Cc1ccccc1O (centres undefined)" assigned_label="middle class"
compound=COc1ccc(COc2cccc3c2C(=O)/C(=C/c2ccc(Cl)cc2)C3)cc1 assigned_label="low class"
compound="O=C1c2c(cccc2OCC2CCCCC2)CC1Cc1cccc(O)c1 (centres undefined)" assigned_label="high class"
compound=COc1ccc(COc2cccc3c2C(=O)/C(=C/c2ccc(C)cc2)C3)cc1 assigned_label="low class"
compound=O=C1/C(=C/c2ccc(O)cc2)Cc2cccc(OCc3ccc([N+](=O)[O-])cc3)c21 assigned_label="middle class"
compound=COc1ccc(/C=C2\Cc3cccc(OCc4ccc(OC)cc4)c3C2=O)cc1 assigned_label="low class"
compound="O=C1c2c(cccc2OCCC2CCCCC2)CC1Cc1ccc(O)cc1 (centres undefined)" assigned_label="high class"
